# assay_explanation: yeast display, Sf9 membrane polyspecificity reagent, FACS + sequencing; frameworks hold sequencing errors
measured_parameter: polyreactivity (PSR sort gate)

1. QVQLVESGGGLVQAGGSLRLSCAASGRISNKYAMGSYRQAPGKERELVAAISYSGGTTYYADSVKGRFTISRDNAKNTVYLQMNSLKPEDTAVYYCARVWSKGYGYYWGYYWGQGSQVTVSS :: low polyreactivity
2. QVQLVESGGGLVQAGGSLRLSCAASGRIFYAYVMGWYRQAPGKERELVAAITSSGGSTYYADSVKGRFTISRDNAKNTVYLQMNSLKPEDTAVYYCNARSYPRWLRYDYWGQGTQVTVSS :: low polyreactivity
3. QVQLVESGGGLVQAGGRLRLSCAASGSTFRSNVMGRYRQATGKERELVAAITSGSITNYADSVKGRFTISRDNAKNTVYLQMNSLKPEDTAVYYCAVETYVYGRMGYLGQGTQVTVSS :: high polyreactivity
4. QVQLVESGGGLVQAGGSLRLSCAASGSIFYGNAMGWYRQAPGKERELVAAITRGTRTYYADSVKGRFTISRDNAKNTVYLQMNSLKPEDTAVYYCAAYLYVPYRYKYDYWGQGAQVTVSS :: high polyreactivity
5. QVQLVESGGGLVQAGGSLRLSCAASGRILTSNAMGWYRKAPGKERELVAAISWSGGSTYYADSVKGRFTISRENAKNSVYLHMNRLKPEDTAGYYCAAPFTTTFDYWGQGTQVTVSS :: low polyreactivity
